tested on: GPR119 (GLUTag-Fla cells which express GPR119) (Mus musculus, UniProt Q7TQP3)
Construct: endogenous in cells
Sequence (Q7TQP3 1-335): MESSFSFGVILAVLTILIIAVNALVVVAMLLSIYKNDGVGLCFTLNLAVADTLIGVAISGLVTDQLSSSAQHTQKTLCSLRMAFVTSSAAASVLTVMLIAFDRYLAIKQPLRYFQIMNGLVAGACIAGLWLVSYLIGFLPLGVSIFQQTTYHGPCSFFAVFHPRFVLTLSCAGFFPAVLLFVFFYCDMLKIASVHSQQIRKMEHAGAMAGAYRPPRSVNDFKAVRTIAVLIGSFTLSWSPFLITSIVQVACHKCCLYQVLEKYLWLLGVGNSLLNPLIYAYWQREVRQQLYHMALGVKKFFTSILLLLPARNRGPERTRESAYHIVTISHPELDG
assay name: Flash Plate adenylyl cyclase (cAMP) assay with GLUTag-Fla cell membranes
details: GLUTag-Fla membranes, eight doses from 10 uM to 1.27 nM, 60 min at room temperature; read-out: EC50 for elevation of cAMP in GLUTag cells
measured metric: EC50

### Prompt EC50 for CC(C)c1noc(C2CCN(c3ncnc(Nc4ccc(S(C)(=O)=O)cc4F)c3[N+](=O)[O-])CC2)n1 ?
### Response ~4.3 nM

All values here come from patent US8022034B2.
